The measurements presented in this section are drawn from ChEMBL document CHEMBL3132803.

Below, each entry is listed alongside its reported AUC.
assay: AUC in Sprague-Dawley rat CSF at 2.5 mg/kg, iv administered as single dose by CE-UV analysis; format: ADME, organism-based; design: dose 2.5 mg/kg, route intravenous; conditions: cerebrospinal fluid

smilesEntry: CCN1C(=O)N[C@H]2[C@@H]3NC(=O)c4cc(Cl)c(Cl)n4[C@@H]3C[C@]21O
AUC (µM·h): 7.6

smilesEntry: CN1C(=O)N[C@H]2[C@@H]3NC(=O)c4ccc(Cl)n4[C@@H]3C[C@]21O
AUC (µM·h): 3.75

smilesEntry: CCN1C(=O)N[C@H]2[C@@H]3NC(=O)c4ccc(Cl)n4[C@@H]3C[C@]21O
AUC (µM·h): 10.1

smilesEntry: CN1C(=O)N[C@H]2[C@@H]3NC(=O)c4ccc(Br)n4[C@@H]3C[C@]21O
AUC (µM·h): 3.41

* * *

Catalogue of pIC50 values
test system: Raji; test: Cytotoxicity against human Raji cells assessed as inhibition of cell proliferation after 3 days by coulter counter analysis; assay type: functional, cell-based; conditions: 72 h
pIC50: −log10 of the molar value.

smilesEntry: O=C1N[C@H]2[C@@H]3NC(=O)c4cccn4[C@@H]3C[C@H]2O1
pIC50: < 5.00

smilesEntry: CNC(=O)N[C@H]1[C@@H]2NC(=O)c3cccn3[C@@H]2C[C@H]1O
pIC50: < 5.00

smilesEntry: CNC(=O)N[C@H]1[C@@H]2NC(=O)c3ccc(Br)n3[C@@H]2C[C@H]1O
pIC50: < 5.00
